Target Entity: UniProt Q9Z2R9
Sequence (Q9Z2R9 whole entry, the tested form may be a part): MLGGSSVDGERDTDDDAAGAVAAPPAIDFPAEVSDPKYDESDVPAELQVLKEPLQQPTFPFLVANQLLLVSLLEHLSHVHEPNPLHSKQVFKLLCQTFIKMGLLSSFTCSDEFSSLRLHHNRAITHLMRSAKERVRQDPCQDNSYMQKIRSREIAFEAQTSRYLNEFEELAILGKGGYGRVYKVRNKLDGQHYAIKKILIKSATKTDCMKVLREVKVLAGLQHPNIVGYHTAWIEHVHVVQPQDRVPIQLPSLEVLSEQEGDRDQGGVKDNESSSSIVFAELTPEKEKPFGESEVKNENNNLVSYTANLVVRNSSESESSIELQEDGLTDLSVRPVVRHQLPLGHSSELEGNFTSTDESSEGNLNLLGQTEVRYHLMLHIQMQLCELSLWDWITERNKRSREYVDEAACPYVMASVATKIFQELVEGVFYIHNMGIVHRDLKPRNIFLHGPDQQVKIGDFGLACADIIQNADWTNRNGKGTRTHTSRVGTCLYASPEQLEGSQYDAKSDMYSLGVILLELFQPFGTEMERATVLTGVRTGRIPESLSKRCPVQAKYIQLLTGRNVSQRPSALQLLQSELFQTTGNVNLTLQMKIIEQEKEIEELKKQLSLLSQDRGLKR
Method: Activation of HRI in mouse KLN cells transfected with 5'UTR of ATF-4 mRNA fused firefly luciferase mRNA and 5'UTR lacking uORF fused renila luciferase mRNA assessed as increase in eIF2alpha phosphorylation by measuring ratio of firefly luciferase to renila luciferase at 1.25 uM after 16 hrs
Format: cell-based
Decide using Ratio alone. Strictly below 3: Met. Equal to or above 3: Not met.

Smi: N#Cc1ccc(NC(=O)N[C@H]2CC[C@H](Oc3ccc(C(F)(F)F)cc3)CC2)cc1C#N
Target Entity: UniProt Q9Z2R9
Class: Not met

Smi: NC(=O)c1cc(C(F)(F)F)ccc1O[C@H]1CC[C@H](NC(=O)Nc2cccc(C(F)(F)F)c2)CC1
Target Entity: UniProt Q9Z2R9
Class: Met

Smi: N#Cc1ccc(O[C@H]2CC[C@H](NC(=O)Nc3cccc(C#N)c3)CC2)cc1
Target Entity: UniProt Q9Z2R9
Class: Met

Smi: N#Cc1ccc(NC(=O)N[C@H]2CC[C@H](Oc3ccc(C(F)(F)F)cc3)CC2)cc1
Target Entity: UniProt Q9Z2R9
Class: Not met

Smi: N#Cc1cc(C#N)cc(NC(=O)N[C@H]2CC[C@H](Oc3ccc(C(F)(F)F)cc3)CC2)c1
Target Entity: UniProt Q9Z2R9
Class: Met

Smi: O=C(Nc1cccc(OC(F)(F)F)c1)N[C@H]1CC[C@H](Oc2ccc(C(F)(F)F)cc2)CC1
Target Entity: UniProt Q9Z2R9
Class: Not met

Smi: O=C(Nc1cccc(C(F)(F)F)c1)N[C@H]1CC[C@H](Oc2ccc(C(F)(F)F)cc2)CC1
Target Entity: UniProt Q9Z2R9
Class: Not met
